- target or test system: serotonine transporter (SERT) receptor (Homo sapiens, UniProt P31645)
- Construct: expressed in transfected cells; host or cells: CHO cells
- Sequence (P31645 whole entry): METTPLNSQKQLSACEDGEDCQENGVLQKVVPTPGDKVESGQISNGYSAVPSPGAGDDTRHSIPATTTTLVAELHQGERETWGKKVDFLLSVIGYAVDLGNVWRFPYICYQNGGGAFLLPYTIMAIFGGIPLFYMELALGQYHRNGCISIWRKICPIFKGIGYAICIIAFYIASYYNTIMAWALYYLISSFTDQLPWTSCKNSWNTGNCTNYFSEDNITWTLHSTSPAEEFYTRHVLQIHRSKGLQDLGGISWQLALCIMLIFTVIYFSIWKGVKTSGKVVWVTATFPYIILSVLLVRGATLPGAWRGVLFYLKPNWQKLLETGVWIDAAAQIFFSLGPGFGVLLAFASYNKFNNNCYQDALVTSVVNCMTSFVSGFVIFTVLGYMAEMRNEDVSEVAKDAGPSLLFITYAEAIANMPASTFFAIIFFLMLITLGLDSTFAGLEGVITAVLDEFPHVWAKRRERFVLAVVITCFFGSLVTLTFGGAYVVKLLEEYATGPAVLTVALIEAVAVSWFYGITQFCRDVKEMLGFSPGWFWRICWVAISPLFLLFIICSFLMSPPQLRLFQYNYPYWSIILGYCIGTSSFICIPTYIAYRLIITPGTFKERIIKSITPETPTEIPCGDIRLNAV
- assay summary: Binding assay SERT (h), [3H]imipramine, CHO cells
- condition label: read-out: SERT [%]
- Method: The specific ligand binding to the receptors is defined as the difference between the total binding and the nonspecific binding determined in the presence of an excess of so unlabelled ligand. The specific Ligand binding to the receptor is defined as the difference between total and non-specific binding determined in the presence of an excess of unlabelled ligand. The compounds were tested at a concentration of 1×10^−6 M, and scintillation counting was the method of detection of ligand binding.
Please note: condition met applies when inhibition at 1 µM is 10% or greater, and condition not met applies otherwise.

> print(dat)
                               smiles.record              label
 1  Cc1c(S(=O)(=O)NCCCCN2CCC(c3noc4cc(F)ccc34)CC2)sc2ccc(F)cc12      condition met
 2  O=S(=O)(NCCCCN1CCN(c2cccc3c2OCCO3)CC1)c1ccc(F)c(Cl)c1  condition not met
 3  O=S(=O)(NCCCN1CCN(c2nsc3ccccc23)CC1)c1cccc(O)c1  condition not met
 4  O=S(=O)(NCCCN1CCN(c2nsc3ccccc23)CC1)c1ccc2ccccc2c1      condition met
 5  O=S(=O)(NCCCN1CCN(c2nsc3ccccc23)CC1)c1ccc2cn[nH]c2c1      condition met
 6  O=S(=O)(NCCCCN1CCN(c2noc3ccccc23)CC1)c1ccc2ccccc2c1  condition not met
 7  O=S(=O)(NCCCN1CCC(c2noc3cc(F)ccc23)CC1)c1cc2cccnc2[nH]1      condition met
 8  O=S(=O)(NCCCCN1CCN(c2cccc3c2OCCO3)CC1)c1ccc2cc(Cl)ccc2c1  condition not met
 9  O=S(=O)(NCCCCN1CCN(c2nsc3ccccc23)CC1)c1ccc2c(c1)CCO2      condition met
10  O=S(=O)(NCCCN1CCC(c2noc3cc(F)ccc23)CC1)c1ccc(OC(F)(F)F)cc1      condition met
11  O=S(=O)(NCCCN1CCC(c2noc3cc(F)ccc23)CC1)c1ccc(Cl)cc1  condition not met
12  O=S(=O)(NCCCN1CCC(c2noc3cc(F)ccc23)CC1)c1cc2ccccc2o1  condition not met
13  O=S(=O)(NCCCN1CCC(c2noc3cc(F)ccc23)CC1)c1ccc(C(F)(F)F)cc1      condition met
14  Cc1cc(S(=O)(=O)NCCCN2CCC(c3noc4cc(F)ccc34)CC2)c(C)s1      condition met
15  O=c1[nH]c2ccc(S(=O)(=O)NCCCN3CCN(c4nsc5ccccc45)CC3)cc2o1      condition met
16  Cc1[nH]c2ccc(Cl)cc2c1C1=CCN(CCCNS(=O)(=O)c2ccc(F)cc2)CC1  condition not met
17  O=S(=O)(NCCCCN1CCC(c2noc3cc(F)ccc23)CC1)c1ccc2cn[nH]c2c1  condition not met
18  O=S(=O)(NCCCN1CCC(c2noc3cc(F)ccc23)CC1)c1cc2ccccc2s1  condition not met
19  Cc1[nH]c2ccc(Cl)cc2c1C1=CCN(CCCCNS(=O)(=O)c2cccc3ccccc23)CC1  condition not met
20  O=C1COc2c(cccc2N2CCN(CCCCNS(=O)(=O)c3cccc(C(F)(F)F)c3)CC2)N1      condition met
21  O=S(=O)(NCCCCN1CCN(c2nsc3ccccc23)CC1)c1cccc(Br)c1      condition met
22  N#Cc1cccc(S(=O)(=O)NCCCCN2CCN(c3noc4ccccc34)CC2)c1      condition met
23  O=S(=O)(NCCCCN1CCC(c2noc3cc(F)ccc23)CC1)c1cccc(Br)c1      condition met
24  CC(C)(C)c1ccc(S(=O)(=O)NCCCN2CCN(c3nsc4ccccc34)CC2)cc1      condition met
25  O=S(=O)(NCCCN1CCN(c2cccc3c2OCCO3)CC1)c1cccc2ccccc12  condition not met
